All figures here come from patent US5411969A.

Test system: LDL
Test: In vitro LDL oxidation (Cu++), conjugated diene formation
Format: biochemical, rabbit
Settings: 10 μM, rabbit plasma LDL, Cu++; treated/control lag time
Listing: LDL Oxd. Inhib. mean lag ratio of selected molecules

| molecule | LDL Oxd. Inhib. mean lag ratio |
| --- | --- |
| CCOc1ccc2c(c1)C(C)=CC(C)(C)N2 [ETHOXYQUIN] | 1.21 |
| Cc1cc(C(C)(C)C)c(O)c(C(C)(C)C)c1 [Butylatedhydroxytoluene] | 1.38 |
| Cc1c(O)cc2c(c1C)OC(C)(CCCC(C)CCCC(C)CCCC(C)C)CC2 (stereo not shown) [γ-Tocopherol] | 1.17 |
| CC(C)=CCC/C(C)=C/CC/C(C)=C/CCCSc1ccc2c(c1)C(C)=CC(C)(C)N2 [Compound 8] | 1.64 |
| CC(C)=CCC/C(C)=C/CC/C(C)=C/CCCOc1ccc2c(c1)C(C)=CC(C)(C)N2 [Compound 4] | 1.80 |
| CC(C)=CCC/C(C)=C/CC/C(C)=C/CCC1(C)CCc2cc(O)c(C)c(C)c2O1 (stereo not shown) [γ-Tocotrienol] | 1.27 |
| Cc1c(C)c2c(c(C)c1O)CCC(C)(CCCC(C)CCCC(C)CCCC(C)C)O2 (stereo not drawn) [α-Tocopherol] | 1.01 |
